System: RS4-11 (B-Lymphoblastic Leukemia);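 further: after 72 h of two-drug dosing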
Test: Bliss excess, mean over the matrix (fraction); higher = more synergy
recordedMetric: Bliss excess
Form field (numeric): enter value without unit.

RS4-11 (B-Lymphoblastic Leukemia) Bliss excess of CC1(C)CCC(CN2CCN(c3ccc(C(=O)NS(=O)(=O)c4ccc(NCC5CCOCC5)c([N+](=O)[O-])c4)c(Oc4cnc5[nH]ccc5c4)c3)CC2)=C(c2ccc(Cl)cc2)C1 [Venetoclax] + Cc1cc2ncnn2cc1Nc1ncc2c(n1)n(C1CCOCC1)c(=O)n2C [AZD7648] (first compound max 1 µM, 7x7, partner max 10 µM) is -0.0149

Bliss excess value, target or system RS4-11 (B-Lymphoblastic Leukemia), for C[C@@H](c1ccc2nccn2c1)n1nnc2ncc(-c3cnn(C)c3)nc21 [Savolitinib] + Cc1c2c(nn1C)CSCc1cc(n(C)n1)CSc1cc(c3ccccc3c1)OCCCc1c(C(=O)O)n(C)c3c-2c(Cl)ccc13 [AZD5991] (first compound max 1 µM, 7x7, partner max 1 µM) : -0.0406

Measured Bliss excess (RS4-11 (B-Lymphoblastic Leukemia)), entry CN(CCO)CC[C@H](CSc1ccccc1)Nc1ccc(S(=O)(=O)NC(=O)c2ccc(N3CCC([C@@H](O)c4ccccc4-c4ccc(Cl)cc4)CC3)cc2)cc1S(=O)(=O)C(F)(F)F [AZD4320] + C=CCn1c(=O)c2cnc(Nc3ccc(N4CCN(C)CC4)cc3)nc2n1-c1cccc(C(C)(C)O)n1 [AZD1775] (first compound max 1 µM, partner max 1 µM) : 0.0285
